Catalogue of EC50 values
Tested on: Leptinotarsa decemlineata
Assay: Antifeedant activity against Leptinotarsa decemlineata assessed as inhibition of feeding by no-choice feeding assay relative to untreated control
Format: functional, organism-based

>  <compound>
CC(=O)OC/C=C(\COC(C)=O)C(C[C@@]1(C)[C@H](C)CC[C@]2(C)[C@@H]1CCCC21CO1)OC(C)=O (stereo partly drawn)

>  <tested-on>
Leptinotarsa decemlineata

>  <EC50>
> 50 microg/cm2

$$$$
>  <compound>
C=C1CCC[C@@H]2[C@@](C)(CC(OC(C)=O)/C(=C/COC(C)=O)COC(C)=O)[C@H](C)CC[C@@]12C (stereo partly drawn)

>  <tested-on>
Leptinotarsa decemlineata

>  <EC50>
> 50 microg/cm2

$$$$
>  <compound>
C=C1CCC[C@@H]2[C@@](C)(CC(O)/C(=C/COC(C)=O)COC(C)=O)[C@H](C)CC[C@@]12C (stereo partly drawn)

>  <tested-on>
Leptinotarsa decemlineata

>  <EC50>
> 50 microg/cm2

$$$$
